assay: Plasma pharmacokinetics after in-clinic subcutaneous doses; type: in vivo, human; details: human, in vivo, sc, 0.75 mg
assay readout: Cmax (µg/mL)
The response must be a number in µg/mL with no trailing unit.

Notebook: CCCC[C@H](NC(C)=O)C(=O)N[C@H]1CC(=O)NCCCC[C@@H](C(=O)O)NC(=O)[C@H](Cc2c[nH]c3ccccc23)NC(=O)[C@H](CCCN=C(N)N)NC(=O)[C@@H](Cc2ccccc2)NC(=O)[C@H](Cc2cnc[nH]2)NC1=O [bremelanotide] , Cmax read as 0.0375
